# System: HCC1187 cells
# test_summary: Single agent screening, alamarBlue proliferation assay
# Type: cell-based
# conditions: Homo sapiens, HCC1187, 72 hours, read-out: IC50 (μM) values of drugs used as single agent
IC50 values, listed per item
Hi! Could you send only the number? It should be in µM, unit omitted.

Cc1c(-c2c(-c3ccc(F)o3)sc3ncnc(O[C@H](Cc4ccccc4OCc4ccnn4CC(F)(F)F)C(=O)O)c23)ccc(OCCN2CCN(C)CC2)c1Cl (atropisomer, axis not shown) : 0.24

Now let's try a different one.
Ask | For the compound shown here, CC1(C)CCC(c2ccc(Cl)cc2)=C(CN2CCN(c3ccc(C(=O)NS(=O)(=O)c4ccc(N[C@H](CCN5CCOCC5)CSc5ccccc5)c(S(=O)(=O)C(F)(F)F)c4)cc3)CC2)C1 , give the reported IC50.
Reply | 20
